target: recombinant HIV-1 protease (Human immunodeficiency virus type 1 group M subtype B); assay: biochemical; format: biochemical; details: Ki (nM)
readout.label: Ki (nM)
Answers are plain numbers, in nM.

Query :: What does the data say about its Ki? Entry: CCOP(=O)(CCCNC(=O)c1cccc(CN2C(=O)N(Cc3ccc(O)cc3)C(Cc3ccccc3)C(O)C(O)C2Cc2ccccc2)c1)OCC (stereo not shown)
Result :: 0.009

###

target: 84V90M (Human immunodeficiency virus type 1 group M subtype B, UniProt P04585, I572V/L578M); test: biochemical; assay type: biochemical, HIV
readout.label: pIC50
Give bare numbers, as −log10 of the molar value.

Query :: # get_value(readout='pIC50', item= CCOP(=O)(CCCNC(=O)c1cccc(CN2C(=O)N(Cc3ccc(O)cc3)C(Cc3ccccc3)C(O)C(O)C2Cc2ccccc2)c1)OCC (stereo not shown) )
Result :: 7.92
